- Experimental target: Muscarinic acetylcholine receptor M1 (Homo sapiens, UniProt P11229)
- Sequence (P11229 whole entry): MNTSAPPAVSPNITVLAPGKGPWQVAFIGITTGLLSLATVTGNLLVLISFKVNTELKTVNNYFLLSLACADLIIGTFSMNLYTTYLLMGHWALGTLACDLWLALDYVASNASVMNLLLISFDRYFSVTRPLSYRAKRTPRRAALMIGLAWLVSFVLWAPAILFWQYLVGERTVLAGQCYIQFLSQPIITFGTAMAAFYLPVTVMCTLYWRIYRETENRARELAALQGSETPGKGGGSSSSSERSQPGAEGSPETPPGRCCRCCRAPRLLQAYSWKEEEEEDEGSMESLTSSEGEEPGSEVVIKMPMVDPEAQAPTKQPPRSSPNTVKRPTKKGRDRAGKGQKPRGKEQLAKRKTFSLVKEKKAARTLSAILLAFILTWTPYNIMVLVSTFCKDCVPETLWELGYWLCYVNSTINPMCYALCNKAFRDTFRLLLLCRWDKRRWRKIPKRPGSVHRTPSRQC
- Assay notes: Binding affinity towards human muscarinic M1 receptor in CHO-KI cells using [3H]- QNB as radioligand
Recorded Ki by entry
Metric name: Ki (µM)

# Molecule, Censoring operator, Readout number
data = [
    ("CCC1CCCCN1CCC[C@@H]1[C@H]2CCCC[C@@H]2C[C@@H]2C(=O)O[C@@H](C)[C@H]12 (stereo partly drawn)", "=", 0.341),
    ("C[C@@H]1OC(=O)[C@H]2C[C@H]3CCCC[C@@H]3[C@@H](CCCN3CCCC4CCCCC43)[C@@H]12 (stereo partly drawn)", "=", 0.038),
    ("CC1CN(CCC[C@@H]2[C@H]3CCCC[C@@H]3C[C@@H]3C(=O)O[C@@H](C)[C@H]23)CC(C)O1 (stereo partly drawn)", "=", 0.601),
    ("CC1CCN(CCC[C@@H]2[C@H]3CCCC[C@@H]3C[C@@H]3C(=O)O[C@@H](C)[C@H]23)CC1", "=", 0.554),
    ("C[C@@H]1OC(=O)[C@H]2C[C@H]3CCCC[C@@H]3[C@@H](CCCN3CCSCC3)[C@@H]12", "=", 0.179),
    ("C[C@@H]1OC(=O)[C@H]2C[C@H]3CCCC[C@@H]3[C@@H](CC[C@H]3CCC[C@H](C)N3C)[C@@H]12", "=", 0.0043),
    ("C[C@@H]1OC(=O)[C@H]2C[C@H]3CCCC[C@@H]3[C@@H](CCCN3CCN(C(=O)OC(C)(C)C)CC3)[C@@H]12", "=", 0.445),
    ("C[C@@H]1OC(=O)[C@H]2C[C@H]3CCCC[C@@H]3[C@@H](CCCN3CCC(O)CC3)[C@@H]12", ">", 0.9),
]
